These entries and their values trace back to PubChem BioAssay AID1016.

We begin with a simple list: items and their reported activation factor.
Tested on: alkaline phosphatase, intestinal [Bos taurus]
Assay: IAP enzyme activity enhancers – biochemical, bovine IAP, CDP-star luminescence, primary screen (AID 1016)
Test parameters: purified bovine IAP, 30 min, at 20 µM, active compounds read high, fold of DMSO-control signal, blank-subtracted
Hit rate of the full screen: of about 200,000 compounds, about 330 (0.17%) were called active. The sample as a whole holds a higher share of actives than the screen did.

Worked cases, answers included:
{"Molecule": "OCCCN1c2ccccc2Nc2nnc(-c3ccccc3)cc21", "Measurement type": "activation factor", "Val": "9 (active)"}
{"Molecule": "COc1cc(OC)c(-n2cc(-c3ccc(Cl)cc3)[nH]c2=O)cc1Cl", "Measurement type": "activation factor", "Val": "1 (inactive)"}
{"Molecule": "CCOCCn1c(C(C)C)nc2ccccc21", "Measurement type": "activation factor", "Val": "0.9 (inactive)"}
{"Molecule": "COc1ccccc1NC(=O)CN1CCN(S(=O)(=O)c2ccc(Br)cc2)CC1", "Measurement type": "activation factor", "Val": "1 (inactive)"}

# ---- query molecule ----
I would be grateful if you could share the reported activation factor for CCCOc1ccc(Cn2ccnc2)cc1[N+](=O)[O-] .
0.2 (inactive)
